# Tested on: TLR4 with MD2 or CD14 co-receptor
# Measurement protocol: Reporter gene (SEAP) PAMP assay in NIH3T3 cells expressing TLR4 with MD2 or CD14 co-receptor
# Format: cell-based
# Test conditions: co-receptor (MD2/CD14) via which the effect occurs; summary of FIGS. 6A-6V
No end group written: not given here.
Measurement label: Co-Receptor/s

Example cases with answers are listed next.
Substance	Result
c[IWSRSW] (cyclic; Inhibitor, cyclic) [SEQ ID No. 15]	MD2
c[SWEFLW] (cyclic; Inhibitor, cyclic) [SEQ ID No. 13]	MD2/CD14
LAWYFGRKIKE (Inhibitor) [SEQ ID No. 11]	MD2
c[MLSFRM] (cyclic; Activator, cyclic) [SEQ ID No. 6]	MD2/CD14
RYETMSIMIKSGGKY-(methyl group replacing C-terminus) (RYETMSIMIKSGGKY-CH3) [SEQ ID No. 1 (M2)]	MD2/CD14

The reported Co-Receptor/s of the substance RYETMSIMIKSGGKG (RYETMSIMIKSGGKY; Activator) [SEQ ID No. 1] was MD2/CD14

###

# Test system: TLR4 with MD2 or CD14 co-receptor
# Measurement protocol: Reporter gene (SEAP) PAMP assay in NIH3T3 cells expressing TLR4 with MD2 or CD14 co-receptor
# Assay type: cell-based
# Test conditions: co-receptor (MD2/CD14) via which the effect occurs; summary of FIGS. 6A-6V
Non-standard residues stand in square brackets, D forms with d. No end group written: not given here. Chg = N[C@H](C(=O)O)C1CCCCC1; Nphe = O=C(O)CNCc1ccccc1
Measurement label: Co-Receptor/s

Here's what some known entries look like.
Substance	Target of assay	Co-Receptor/s
c[SIWDTMW] (cyclic; Inhibitor, cyclic) [SEQ ID No. 14]	TLR4 with MD2 or CD14 co-receptor	MD2
MIPYGMRMM (Inhibitor) [SEQ ID No. 10]	TLR4 with MD2 or CD14 co-receptor	MD2
RYETMSIMIKSGGKY (not fully specified) [SEQ ID No. 1 (M1)]	TLR4 with MD2 or CD14 co-receptor	MD2/CD14
c[gfwseeeksl] (all D-amino acids) (cyclo(G[dF][dW][dS][dE][dE][dE][dK][dS][dL]); SMILES CC(C)C[C@H]1NC(=O)[C@@H](CO)NC(=O)[C@@H](CCCCN)NC(=O)[C@@H](CCC(=O)O)NC(=O)[C@@H](CCC(=O)O)NC(=O)[C@@H](CCC(=O)O)NC(=O)[C@@H](CO)NC(=O)[C@@H](Cc2c[nH]c3ccccc23)NC(=O)[C@@H](Cc2ccccc2)NC(=O)CNC1=O) [SEQ ID No. 22]	TLR4 with MD2 or CD14 co-receptor	MD2/CD14
PLWMMIKSMGSMMEMKK (Activator) [SEQ ID No. 3]	TLR4 with MD2 or CD14 co-receptor	MD2

get_value(item= c[gwlwrsl] (all D-amino acids) (cyclo(G[dW][dL][dW][dR][dS][dL]); SMILES CC(C)C[C@H]1NC(=O)[C@@H](CO)NC(=O)[C@@H](CCCNC(=N)N)NC(=O)[C@@H](Cc2c[nH]c3ccccc23)NC(=O)[C@@H](CC(C)C)NC(=O)[C@@H](Cc2c[nH]c3ccccc23)NC(=O)CNC1=O) [SEQ ID No. 19] , readout=Co-Receptor/s) returns MD2/CD14

Documented Co-Receptor/s of ILYKSLKWM (Activator) [SEQ ID No. 5] : MD2/CD14

Co-Receptor/s recorded for this substance, ILYMSLKWM (Activator) [SEQ ID No. 4] , is MD2/CD14

Short answer for c[geldkftm] (all D-amino acids) (cyclo(G[dE][dL][dD][dK][dF][dT][dM]); SMILES CSCC[C@H]1NC(=O)[C@@H]([C@H](C)O)NC(=O)[C@@H](Cc2ccccc2)NC(=O)[C@@H](CCCCN)NC(=O)[C@@H](CC(=O)O)NC(=O)[C@@H](CC(C)C)NC(=O)[C@@H](CCC(=O)O)NC(=O)CNC1=O) [SEQ ID No. 21] : Co-Receptor/s was MD2/CD14

Co-Receptor/s reading for (N′) 1(S)Glu-2(S)Trp-3Gly-4(S)Trp-5(S)Arg-6(S)Met-7(R,S)Ile-8Bzl(Gly) (C′) (EWGWRMI[Nphe]; also: Ile7 (R,S)) [SEQ ID No. 2 (M1)] : MD2/CD14

Memo: (N′) Chg-2Leu-3Tyr-4Met-5Ser-6Leu-7Lys-8Trp-9Met (C′) ([Chg]LYMSLKWM) [SEQ ID No. 4 (M2)] , reported Co-Receptor/s: MD2/CD14

###

# Test system: TLR4 with MD2 or CD14 co-receptor
# Measurement protocol: Reporter gene (SEAP) PAMP assay in NIH3T3 cells expressing TLR4 with MD2 or CD14 co-receptor
# Type: cell-based
# Test conditions: co-receptor (MD2/CD14) via which the effect occurs; summary of FIGS. 6A-6V
Non-standard residues stand in square brackets, D forms with d. No end group written: not given here. Ava = NCCCCC(=O)O
Measurement label: Co-Receptor/s

Reference set, count: 5
Substance	Co-Receptor/s
c[WMLGMESI] (cyclic; Activator, cyclic) [SEQ ID No. 7]	CD14
c[gwwwral] (all D-amino acids) (cyclo(G[dW][dW][dW][dR][dA][dL]); SMILES CC(C)C[C@H]1NC(=O)[C@@H](C)NC(=O)[C@@H](CCCNC(=N)N)NC(=O)[C@@H](Cc2c[nH]c3ccccc23)NC(=O)[C@@H](Cc2c[nH]c3ccccc23)NC(=O)[C@@H](Cc2c[nH]c3ccccc23)NC(=O)CNC1=O) [SEQ ID No. 20]	MD2/CD14
ILFMGMKWL (Inhibitor) [SEQ ID No. 9]	MD2
EWGWRMII (Activator) [SEQ ID No. 2]	MD2/CD14
c[IGFMMMKKEF] (cyclic; Activator, cyclic) [SEQ ID No. 8]	MD2/CD14

Record 1(N′) Ava-OH-2Leu-3Tyr-4Met-5Ser-6Leu-7Lys-8Trp-9Met (C′) ([Ava]LYMSLKWM; also: Ava-OH) [SEQ ID No. 4 (M1)] . Reported Co-Receptor/s: MD2/CD14

The reported value for KKLMLII (at the C-terminus CH3 replace COOH) (KKLMLII-CH3) [SEQ ID No. 12] in terms of Co-Receptor/s is MD2/CD14

Note to self: Co-Receptor/s recorded for RYETMSIMIKSGGKG-(methyl group replacing C-terminus) [SEQ ID No. 1 (M3)] was MD2/CD14

###

# Test system: TLR4 with MD2 or CD14 co-receptor
# Measurement protocol: Reporter gene (SEAP) PAMP assay in NIH3T3 cells expressing TLR4 with MD2 or CD14 co-receptor
# Type: cell-based
# Set-up: key: 0: no effect of the compound alone/no effect of the compound in addition to LPS alone; +: small effect of the compound alone/small effect of the compound in addition to LPS alone; ++: intermediate effect of the comp. alone/intermediate effect of the comp. in add. to LPS alone; +++: strong effect of the compound alone/strong effect of the compound in addition to LPS alone
# Test conditions: compound alone
Non-standard residues stand in square brackets, D forms with d. No end group written: not given here. Chg = N[C@H](C(=O)O)C1CCCCC1; Ava = NCCCCC(=O)O
Measurement label: PAMP assay (NIH3T3 cells) Induction with compound alone

Substance	Result
RYETMSIMIKSGGKG-(methyl group replacing C-terminus) [SEQ ID No. 1 (M3)]	+
c[MLSFRM] (cyclic; Activator, cyclic) [SEQ ID No. 6]	++
RYETMSIMIKSGGKY (not fully specified) [SEQ ID No. 1 (M1)]	+
RYETMSIMIKSGGKY-(methyl group replacing C-terminus) (RYETMSIMIKSGGKY-CH3) [SEQ ID No. 1 (M2)]	+
(N′) Chg-2Leu-3Tyr-4Met-5Ser-6Leu-7Lys-8Trp-9Met (C′) ([Chg]LYMSLKWM) [SEQ ID No. 4 (M2)]	++

Lab note: measured PAMP assay (NIH3T3 cells) Induction with compound alone of ILYMSLKWM (Activator) [SEQ ID No. 4] was +

Just so you know, measured PAMP assay (NIH3T3 cells) Induction with compound alone for 1(N′) Ava-OH-2Leu-3Tyr-4Met-5Ser-6Leu-7Lys-8Trp-9Met (C′) ([Ava]LYMSLKWM; also: Ava-OH) [SEQ ID No. 4 (M1)] came out at ++
